# assaySystem: human full-length glucocorticoid receptor (Homo sapiens, UniProt P04150)
# Sequence (P04150 whole entry): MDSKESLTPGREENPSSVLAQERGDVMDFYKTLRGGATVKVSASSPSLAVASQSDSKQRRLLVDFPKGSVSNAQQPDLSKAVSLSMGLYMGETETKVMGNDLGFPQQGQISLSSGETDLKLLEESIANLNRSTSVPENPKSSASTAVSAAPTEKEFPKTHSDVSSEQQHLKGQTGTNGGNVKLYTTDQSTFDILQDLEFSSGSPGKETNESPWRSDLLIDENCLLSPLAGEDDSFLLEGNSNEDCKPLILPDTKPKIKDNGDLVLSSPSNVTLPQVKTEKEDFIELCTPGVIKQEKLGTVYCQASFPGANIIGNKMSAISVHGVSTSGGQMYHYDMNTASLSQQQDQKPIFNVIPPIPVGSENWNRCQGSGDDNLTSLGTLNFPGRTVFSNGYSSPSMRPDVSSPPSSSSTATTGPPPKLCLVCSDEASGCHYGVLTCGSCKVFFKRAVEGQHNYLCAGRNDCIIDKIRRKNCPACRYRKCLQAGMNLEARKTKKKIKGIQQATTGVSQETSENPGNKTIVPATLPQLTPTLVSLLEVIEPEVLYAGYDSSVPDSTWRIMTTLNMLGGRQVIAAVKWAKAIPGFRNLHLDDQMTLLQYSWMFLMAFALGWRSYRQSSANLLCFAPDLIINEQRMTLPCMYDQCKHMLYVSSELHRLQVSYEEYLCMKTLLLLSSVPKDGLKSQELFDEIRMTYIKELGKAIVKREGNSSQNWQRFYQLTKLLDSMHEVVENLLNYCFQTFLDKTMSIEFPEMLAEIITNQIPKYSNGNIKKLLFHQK
# experimentSummary: Glucocorticoid Receptor Binding Assay (I), fluorescence polarization, Fluormone GS Red
# Design: purified human recombinant full-length glucocorticoid receptor; purchased Invitrogen Part #2893
# testSettings: GR Binding Assay (I); read-out: GR (Ki, nM) (GR Binding Assay (I))
measuredMetric: Ki (nM)
Response body: numeric value in nM, unit text excluded.

INSERT INTO results (querysmiles, numericresult) VALUES
  ('CC(C)NC(=O)c1ccc(-c2ccc3c(n2)Oc2ccccc2[C@@H]3C(C)(C)C(=O)Nc2nncs2)cc1', 13),
  ('CC(C)(C(=O)Nc1nncs1)[C@H]1c2ccccc2Oc2nc(-c3ccc(S(=O)(=O)NC4CC4)cc3)ccc21', 4.85);

Moving on to the next molecule.
Output Ki of `CC(C)(C(=O)Nc1nncs1)[C@H]1c2ccccc2Oc2nc(-c3ccc(C(=O)N4CCNC(=O)CC4)cc3)ccc21`
25.8
